# assayed-system: human TAS2R1 (Homo sapiens)
# Construct: expressed in transfected cells; host or cells: HEK293T-Gα16gust44
# Sequence (Q9NYW7 whole entry): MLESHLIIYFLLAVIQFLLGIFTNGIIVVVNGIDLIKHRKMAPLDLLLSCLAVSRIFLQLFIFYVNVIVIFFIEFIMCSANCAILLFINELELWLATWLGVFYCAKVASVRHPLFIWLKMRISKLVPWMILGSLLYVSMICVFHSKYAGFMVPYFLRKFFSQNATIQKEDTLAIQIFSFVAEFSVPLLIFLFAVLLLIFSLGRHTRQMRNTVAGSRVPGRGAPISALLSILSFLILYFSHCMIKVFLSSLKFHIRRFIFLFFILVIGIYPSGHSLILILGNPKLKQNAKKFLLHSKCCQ
# test-method-notes: Calcium imaging assay (FLIPR), HEK293T-Gα16gust44 cells transfected with human TAS2R1
# Assay type: cell-based
# condition-details: Time 215.562 s
Below, each entry is listed with its recorded RLU.
property: RLU

* C[C@H](CCC(=O)O)[C@H]1CC[C@H]2[C@@H]3[C@H](O)C[C@@H]4C[C@H](O)CC[C@]4(C)[C@H]3C[C@H](O)[C@]12C | 68.108 RLU
* C[C@H](CCC(=O)O)[C@H]1CC[C@H]2[C@@H]3[C@@H](O)C[C@@H]4C[C@H](O)CC[C@]4(C)[C@H]3CC[C@]12C | 20.9611 RLU
* C[C@H](CCC(=O)O)[C@H]1CC[C@H]2[C@@H]3[C@H](O)C[C@@H]4C[C@H](O)CC[C@]4(C)[C@H]3CC[C@]12C | 277.825 RLU
* C[C@H](CCC(=O)O)[C@H]1CC[C@H]2[C@@H]3CC[C@@H]4C[C@H](O)CC[C@]4(C)[C@H]3CC[C@]12C | 406.858 RLU

Every entry's value here was drawn from paper PMC10247784.
